Tested on: E. faecium 3978
Experiment: microbe, parasite or virus in culture
Assay type: cell-based, Enterococcus faecium
Conditions: 3978, 24 h
measurementName: Minimum inhibitory concentration

Please give the documented Minimum inhibitory concentration of NCCCC[C@H](NC(=O)CCN(CC1CCCCC1)C(=O)[C@H](CCCCN)NC(=O)CCN(CC1CCCCC1)C(=O)[C@H](CCCCN)NC(=O)CCN(CC1CCCCC1)C(=O)[C@H](CCCCN)NC(=O)CCN(CC1CCCCC1)C(=O)[C@H](CCCCN)NC(=O)CCN(CC1CCCCC1)C(=O)[C@H](CCCCN)NC(=O)CCN(CC1CCCCC1)C(=O)[C@H](CCCCN)NC(=O)CCN(CC1CCCCC1)C(=O)[C@@H](N)CCCCN)C(=O)N(CCC(N)=O)CC1CCCCC1 [Compound 9, H-[Lys-βNCha]8-NH2]
2 to 4 µg/mL

Moving on to another compound below.
Please give the documented Minimum inhibitory concentration of CCCCCCCC(=O)N[C@@H](CCCCN)C(=O)N(CCC(=O)N[C@@H](CCCCN)C(=O)N(CCC(=O)N[C@@H](CCCCN)C(=O)N(CCC(=O)N[C@@H](CCCCN)C(=O)N(CCC(=O)N[C@@H](CCCCN)C(=O)N(CCC(=O)N[C@@H](CCCCN)C(=O)N(CCC(N)=O)[C@@H](C)c1ccccc1)[C@@H](C)c1ccccc1)[C@@H](C)c1ccccc1)[C@@H](C)c1ccccc1)[C@@H](C)c1ccccc1)[C@@H](C)c1ccccc1 [Compound 10, Oct-[Lys-βNspe]6-NH2]
2 to 4 µg/mL

====

Assay: Hydrophobicity by analytical RP-HPLC (% MeCN at peak elution)
Type: physicochemical
measurementName: Hydrophobicity, Luna C18(2) HST (0–60% B; 10 min), retention converted into % MeCN
Write the numeric value and append its unit.

Please give the documented Hydrophobicity, Luna C18(2) HST (0–60% B; 10 min), retention converted into % MeCN of CC(=O)N[C@@H](CCCCNC(=N)N)C(=O)N(CCC(=O)N[C@@H](CCCCNC(=N)N)C(=O)N(CCC(=O)N[C@@H](CCCCNC(=N)N)C(=O)N(CCC(=O)N[C@@H](CCCCNC(=N)N)C(=O)N(CCC(=O)N[C@@H](CCCCNC(=N)N)C(=O)N(CCC(=O)N[C@@H](CCCCNC(=N)N)C(=O)N(CCC(=O)N[C@@H](CCCCNC(=N)N)C(=O)N(CCC(=O)N[C@@H](CCCCNC(=N)N)C(=O)N(CCC(N)=O)Cc1ccccc1)Cc1ccccc1)Cc1ccccc1)Cc1ccccc1)Cc1ccccc1)Cc1ccccc1)Cc1ccccc1)Cc1ccccc1 [Compound 1, Ac-[hArg-βNPhe]8-NH2]
41.8 % MeCN

====

Below, each entry is listed with its recorded Minimum inhibitory concentration.
System: E. faecium 3978
Test: microbe, parasite or virus in culture
Format: cell-based, Enterococcus faecium
Conditions: 3978, 24 h
Give a bare numeral; the unit µg/mL is implied.

Please give the documented Minimum inhibitory concentration of CC(=O)N[C@@H](CCCCNC(=N)N)C(=O)N(CCC(=O)N[C@@H](CCCCNC(=N)N)C(=O)N(CCC(=O)N[C@@H](CCCCNC(=N)N)C(=O)N(CCC(=O)N[C@@H](CCCCNC(=N)N)C(=O)N(CCC(=O)N[C@@H](CCCCNC(=N)N)C(=O)N(CCC(=O)N[C@@H](CCCCNC(=N)N)C(=O)N(CCC(=O)N[C@@H](CCCCNC(=N)N)C(=O)N(CCC(=O)N[C@@H](CCCCNC(=N)N)C(=O)N(CCC(N)=O)Cc1ccccc1)Cc1ccccc1)Cc1ccccc1)Cc1ccccc1)Cc1ccccc1)Cc1ccccc1)Cc1ccccc1)Cc1ccccc1 [Compound 1, Ac-[hArg-βNPhe]8-NH2]
4

Next:
Please give the documented Minimum inhibitory concentration of CC(=O)N[C@@H](CCCCNC(=N)N)C(=O)N(CCC(=O)N[C@@H](CCCCNC(=N)N)C(=O)N(CCC(=O)N[C@@H](CCCCNC(=N)N)C(=O)N(CCC(=O)N[C@@H](CCCCNC(=N)N)C(=O)N(CCC(=O)N[C@@H](CCCCNC(=N)N)C(=O)N(CCC(=O)N[C@@H](CCCCNC(=N)N)C(=O)N(CCC(N)=O)[C@@H](C)C1CCCCC1)[C@@H](C)C1CCCCC1)[C@@H](C)C1CCCCC1)[C@@H](C)C1CCCCC1)[C@@H](C)C1CCCCC1)[C@@H](C)C1CCCCC1 [Compound 2, Ac-[hArg-βNsce]6-NH2]
2

Please give the documented Minimum inhibitory concentration of CC(=O)N[C@@H](CCCCNC(=N)N)C(=O)N(CCC(=O)N[C@@H](CCCCN)C(=O)N(CCC(=O)N[C@@H](CCCCNC(=N)N)C(=O)N(CCC(=O)N[C@@H](CCCCN)C(=O)N(CCC(=O)N[C@@H](CCCCNC(=N)N)C(=O)N(CCC(=O)N[C@@H](CCCCN)C(=O)N(CCC(N)=O)[C@@H](C)c1ccccc1)[C@@H](C)C1CCCCC1)[C@@H](C)c1ccccc1)[C@@H](C)C1CCCCC1)[C@@H](C)c1ccccc1)[C@@H](C)C1CCCCC1 [Compound 5, Ac-[hArg-βNsce-Lys-βNspe]3-NH2]
2

Please give the documented Minimum inhibitory concentration of C[C@@H](c1ccccc1)N(CCC(=O)N[C@@H](CCCCN)C(=O)N(CCC(=O)N[C@@H](CCCCNC(=N)N)C(=O)N(CCC(=O)N[C@@H](CCCCN)C(=O)N(CCC(=O)N[C@@H](CCCCNC(=N)N)C(=O)N(CCC(=O)N[C@@H](CCCCN)C(=O)N(CCC(N)=O)[C@@H](C)c1ccccc1)[C@@H](C)c1ccccc1)[C@@H](C)c1ccccc1)[C@@H](C)c1ccccc1)[C@@H](C)c1ccccc1)C(=O)[C@H](CCCCNC(=N)N)NC(=O)C=Cc1ccccc1 [Compound 6, Cinn-[hArg-βNspe-Lys-βNspe]3-NH2]
4

Please give the documented Minimum inhibitory concentration of C[C@@H](c1ccccc1)N(CCC(N)=O)C(=O)[C@H](CCCCN)NC(=O)CCN(C(=O)[C@H](CCCCNC(=N)N)NC(=O)CCN(C(=O)[C@H](CCCCN)NC(=O)CCN(C(=O)[C@H](CCCCNC(=N)N)NC(=O)CCN(C(=O)[C@H](CCCCN)NC(=O)CCN(C(=O)[C@H](CCCCNC(=N)N)NC(=O)CNCCCNCCCCNCCCN)[C@@H](C)c1ccccc1)[C@@H](C)c1ccccc1)[C@@H](C)c1ccccc1)[C@@H](C)c1ccccc1)[C@@H](C)c1ccccc1 [Compound 3, SpermineAc-[hArg-βNspe-Lys-βNspe]3-NH2]
8
